Conditions: 303.15 K; 101 kPa; Liquid
recorded_metric: viscosity (mPa·s)

> print(dat)
   smiles.input  endpoint.value
1     CCOCCOCCO           3.531
2        CCOCCO           1.646
3  CCOCCOCCOCCO           6.421
4   CCOC(C)(C)C           0.478
